molecular target: Serine/threonine-protein kinase Chk2 (Homo sapiens, UniProt O96017); experiment: Inhibition of recombinant human Chk2 kinase
Sequence (O96017 whole entry): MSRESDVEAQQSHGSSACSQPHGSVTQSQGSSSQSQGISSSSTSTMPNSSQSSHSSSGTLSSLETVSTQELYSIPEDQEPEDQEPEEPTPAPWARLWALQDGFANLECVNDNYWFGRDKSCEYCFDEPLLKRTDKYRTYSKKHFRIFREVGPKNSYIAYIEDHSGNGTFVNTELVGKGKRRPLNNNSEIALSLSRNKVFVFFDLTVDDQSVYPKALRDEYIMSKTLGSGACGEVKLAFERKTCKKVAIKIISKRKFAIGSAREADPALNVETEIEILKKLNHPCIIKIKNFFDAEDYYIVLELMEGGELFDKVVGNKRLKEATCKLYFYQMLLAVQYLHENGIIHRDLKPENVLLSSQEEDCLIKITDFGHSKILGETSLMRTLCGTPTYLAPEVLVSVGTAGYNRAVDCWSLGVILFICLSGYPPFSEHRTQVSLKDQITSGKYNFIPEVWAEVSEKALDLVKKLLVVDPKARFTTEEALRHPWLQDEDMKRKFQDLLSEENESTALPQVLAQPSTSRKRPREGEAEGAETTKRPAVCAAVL
Measured Quantity: IC50

INSERT INTO measurements (compound_smiles, measured_quantity, test_value) VALUES
  ('CN(C)C(=O)c1ccc2[nH]c(-c3ccc(Oc4ccccc4)cc3)nc2c1', 'IC50', '> 10 µM');

The value of IC50 recorded for `NC(=O)c1ccc2nc(-c3ccc(C(=O)Nc4ccc(Cl)c(Cl)c4)cc3)[nH]c2c1` when tested on Serine/threonine-protein kinase Chk2 (Homo sapiens, UniProt O96017) reads > 10 µM
